assay_endpoint: melting point

Example entries and their recorded answers appear below.
# compound, assay_endpoint, observed
rows = [
    ("COC(=O)c1cc2cnc(N3CCCCC3)nc2n(Cc2ccc(OC)c(Cl)c2)c1=O [Example 22]", "melting point", "201 to 203 °C"),
    ("COc1ccc(Cn2c(=O)ccc3cnc(N4CCC[C@@H]4CO)nc32)cc1Cl [Example 26]", "melting point", "139 to 141 °C"),
    ("COc1ccc(Cn2c(=O)ccc3cnc(NCc4ncccn4)nc32)cc1Cl [Example 25]", "melting point", "172 to 173 °C"),
    ("COc1ccc(Cn2c(=O)ccc3cnc(N4CCC[C@H]4CO)nc32)cc1 [Example 16]", "melting point", "135 to 136 °C"),
    ("COc1ccc(Cn2c(=O)ccc3cnc(OCc4ccccn4)nc32)cc1Cl [Example 2]", "melting point", "130 to 131 °C"),
    ("COc1ccc(Cn2c(=O)ccc3cnc(N4CCC[C@H]4CO)nc32)cc1Cl [Example 1]", "melting point", "142 to 143 °C"),
    ("O=c1ccc2cnc(N3CCC[C@H]3CO)nc2n1Cc1ccncc1 [Example 20]", "melting point", "143 to 144 °C"),
    ("COc1ccc(Cn2c(=O)c(C(=O)NCc3ncccn3)cc3cnc(N4CCC[C@H]4CO)nc32)cc1Cl", "melting point", "216 to 218 °C"),
]

Now look at this one.
Data request: Using known records, supply melting point for O=c1ccc2cnc(N3CCC[C@H]3CO)nc2[nH]1 [Example 15]
Data returned: 99 to 103 °C

----------
assay_endpoint: melting point

Example entries and their recorded answers appear below.
# compound, melting point
data = [
    ("COc1ccc(Cn2c(=O)c(C(=O)O)cc3cnc(N4CCC[C@H]4CO)nc32)cc1Cl [Example 33]", "258 to 264 °C"),
    ("COC(=O)c1c(-c2nccn2C)c2cnc(N3CCC[C@H]3CO)nc2n(Cc2ccc(OC)c(Cl)c2)c1=O [Example 13]", "142 to 145 °C"),
    ("COc1ccc(Cn2c(=O)ccc3ccc(N4CCC[C@H]4CO)nc32)cc1Cl [Example 10]", "131 to 134 °C"),
]

Data request: Using known records, supply melting point for Cn1c(=O)ccc2cnc(N3CCC[C@H]3CO)nc21 [Example 3]
Data returned: 143 to 144 °C

Data request: Using known records, supply melting point for CN(C)CCn1c(=O)ccc2cnc(N3CCC[C@H]3CO)nc21 [Example 21]
Data returned: 102 to 104 °C

Data request: Using known records, supply melting point for COc1ccc(Cn2c(=O)ccc3cnc(N4CCNCC4)nc32)cc1Cl [Example 28]
Data returned: 169.5 to 170 °C

Data request: Using known records, supply melting point for O=c1ccc2cnc(N3CCC[C@H]3CO)nc2n1Cc1ccc2c(c1)OCO2 [Example 18]
Data returned: 154 to 155 °C

Data request: Using known records, supply melting point for COc1ccc(Cn2c(=O)cc(-c3ccccn3)c3cnc(N4CCC[C@H]4CO)nc32)cc1Cl [Example 12]
Data returned: 183.5 to 186.5 °C

Data request: Using known records, supply melting point for COc1ccc(Cn2c(=O)ccc3cnc(N4CCc5ccccc5C4)nc32)cc1Cl [Example 23]
Data returned: 167 to 168 °C
